# testedSystem: Creatine kinase M-type (Oryctolagus cuniculus) (UniProt P00563)
# Sequence (P00563 whole entry, looked up): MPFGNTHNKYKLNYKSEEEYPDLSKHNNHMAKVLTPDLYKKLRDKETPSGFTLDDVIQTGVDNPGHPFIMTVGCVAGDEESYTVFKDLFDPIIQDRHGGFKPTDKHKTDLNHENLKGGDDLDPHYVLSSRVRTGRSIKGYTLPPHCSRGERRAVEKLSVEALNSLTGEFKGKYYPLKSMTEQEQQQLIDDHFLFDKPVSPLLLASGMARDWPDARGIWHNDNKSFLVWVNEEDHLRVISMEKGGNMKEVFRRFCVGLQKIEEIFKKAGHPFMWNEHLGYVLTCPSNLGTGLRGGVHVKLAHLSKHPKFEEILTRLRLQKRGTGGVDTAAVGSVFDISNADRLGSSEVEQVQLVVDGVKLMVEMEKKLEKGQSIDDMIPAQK
# procedureDetails: Compound was evaluated for interaction with the creatine kinase in rabbit muscle after 6 hr
# Parameters: reference not given here
assayReadout: Activity
Put your answer as a value accompanied by its unit after it.

So for CCN1C(=O)[C@@H]2SS[C@H]1C(=O)N2CC , the logged Activity turned out to be 34%

Measured Activity, CN1C(=O)[C@]23CC4=CC=C[C@H](O)[C@H]4N2C(=O)[C@@]1(CO)SS3 [GLIOTOXIN] : 32%

# compound CCN1C(=O)[C@H]2SS[C@@H]1C(=O)N2CC ; its Activity = 34%

The reported Activity of the compound CCN1C(=O)C2SSC1C(=O)N2CC (racemic) was 35%
